B1: Homeobox protein cut-like 2, residues 895 to 963; numbered along this chain, O14529 (parent)
chain: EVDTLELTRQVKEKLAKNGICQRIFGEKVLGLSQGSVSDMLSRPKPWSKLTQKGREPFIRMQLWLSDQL

variants of: B1; assay: abundance fitness (aPCA) (normalised: wild type 0, dead -1); higher = more abundant; growth selection in yeast, the domain comes from the species named; settings: Homo sapiens
Entries get a class label from measured abundance fitness. See ranges: class A = under -0.2, class B = from -0.2 up to -0.01, class C = -0.01 and over

>>> class_name("EVDTLELTRQVKEKLAKNGICQRIFGEKVLGLSQGSVSDMLSRPKPWSKLTQKGRQPFIRMQLWLSDQL [E56Q]")
"class B"
>>> class_name("EVDTLELTRQVKEKLAKNGICQRIFGEKVLGLSQGSVSDMLSRPKPWSKLTQKGREIFIRMQLWLSDQL [P57I]")
"class C"
>>> class_name("EVDTLELTRQVKEKLAKNGICQRIFGEKVLGLSQGSVSKMLSRPKPWSKLTQKGREPFIRMQLWLSDQL [D39K]")
"class A"
>>> class_name("EVDTLELTRQVKEKLAKNGICQRMFGEKVLGLSQGSVSDMLSRPKPWSKLTQKGREPFIRMQLWLSDQL [I24M]")
"class B"
>>> class_name("EVDTLELTRQVKEKLAKNGICQRIFGEKVLGLSQGSKSDMLSRPKPWSKLTQKGREPFIRMQLWLSDQL [V37K]")
"class A"
>>> class_name("EVDTLELTRQVKEKLAKNGICQRIFGEKVLGLSQGSVSDMLSRKKPWSKLTQKGREPFIRMQLWLSDQL [P44K]")
"class B"
>>> class_name("EVDTLELTRQVKEKLAKNGICQRIFVEKVLGLSQGSVSDMLSRPKPWSKLTQKGREPFIRMQLWLSDQL [G26V]")
"class A"
>>> class_name("EVDTLELTRQAKEKLAKNGICQRIFGEKVLGLSQGSVSDMLSRPKPWSKLTQKGREPFIRMQLWLSDQL [V11A]")
"class A"
>>> class_name("EVDTLELTRQVKEKLAKNGICQRIFGEKVLGLSQGSVSDMLSRPKPWSKLTQKGREPFIMMQLWLSDQL [R60M]")
"class A"
>>> class_name("EVCTLELTRQVKEKLAKNGICQRIFGEKVLGLSQGSVSDMLSRPKPWSKLTQKGREPFIRMQLWLSDQL [D3C]")
"class A"
>>> class_name("EVDTLELTRQVKEKLAKNGICQRIFGEKVLGYSQGSVSDMLSRPKPWSKLTQKGREPFIRMQLWLSDQL [L32Y]")
"class A"
>>> class_name("EVDTLELTRQVKEKLAKNGICQRIFGEKVLGLSQGSVSDMLSRPKPWSKLTQKGREPYIRMQLWLSDQL [F58Y]")
"class C"
>>> class_name("EVDTLELTRQVKEKLAKNGICQRIFGEKVLGLSQGSVSDMLSRPKPWSKLTQKGREPFIRMQLFLSDQL [W64F]")
"class A"
>>> class_name("EVDTLELTRQVKEKLAKNGICQRIFGEKVLGLSQGSVSDMWSRPKPWSKLTQKGREPFIRMQLWLSDQL [L41W]")
"class A"
>>> class_name("EVDTLELTRDVKEKLAKNGICQRIFGEKVLGLSQGSVSDMLSRPKPWSKLTQKGREPFIRMQLWLSDQL [Q10D]")
"class C"
>>> class_name("EVDTLELTRQVKEKLAKNGICQRIFGEKVLGLSQGSVSDMLSRPKPWSKLTQKGREPFIRMQEWLSDQL [L63E]")
"class C"
>>> class_name("EVDTLELTRQVKEKLAKNGICQRIFGEKVLGLSQGSVSDMLSRPKPWSKLYQKGREPFIRMQLWLSDQL [T51Y]")
"class B"
>>> class_name("VVDTLELTRQVKEKLAKNGICQRIFGEKVLGLSQGSVSDMLSRPKPWSKLTQKGREPFIRMQLWLSDQL [E1V]")
"class A"
>>> class_name("EVDTLELTRQVKEKLAKNGICQRYFGEKVLGLSQGSVSDMLSRPKPWSKLTQKGREPFIRMQLWLSDQL [I24Y]")
"class C"
>>> class_name("EVDTLELTRQVKEKLAKNGICQRIFGEKVLGLSQNSVSDMLSRPKPWSKLTQKGREPFIRMQLWLSDQL [G35N]")
"class C"
>>> class_name("EVDTLELTRQVKEKLAKNGICQRIFGEKVLGLSQGSVSDMCSRPKPWSKLTQKGREPFIRMQLWLSDQL [L41C]")
"class A"
>>> class_name("EVDTLELTRQVKEKLAKNGECQRIFGEKVLGLSQGSVSDMLSRPKPWSKLTQKGREPFIRMQLWLSDQL [I20E]")
"class A"
>>> class_name("EMDTLELTRQVKEKLAKNGICQRIFGEKVLGLSQGSVSDMLSRPKPWSKLTQKGREPFIRMQLWLSDQL [V2M]")
"class C"
>>> class_name("EVDTLELTRQVKEKLAKNGICQRIFGEKVNGLSQGSVSDMLSRPKPWSKLTQKGREPFIRMQLWLSDQL [L30N]")
"class A"
>>> class_name("EVDTLELTSQVKEKLAKNGICQRIFGEKVLGLSQGSVSDMLSRPKPWSKLTQKGREPFIRMQLWLSDQL [R9S]")
"class B"
>>> class_name("EVDTLELTRQVKEKLAKNGICQRIFGEKVLGLSQGSVSDMLSRPKPWSKLEQKGREPFIRMQLWLSDQL [T51E]")
"class A"
>>> class_name("EVDTLELTRQVKEKLAKNGICQRIFGERVLGLSQGSVSDMLSRPKPWSKLTQKGREPFIRMQLWLSDQL [K28R]")
"class B"
>>> class_name("EVDTLELTRQVKEKLAINGICQRIFGEKVLGLSQGSVSDMLSRPKPWSKLTQKGREPFIRMQLWLSDQL [K17I]")
"class A"
>>> class_name("EVDTLELTRQVKEKLAKNGICQRIFGEKVLGLSQGSVSDMLSRPKPWSKLTQKGREPFIRMQLWLNDQL [S66N]")
"class C"
>>> class_name("EVDTLELTRQVKEKLAKNGICQRWFGEKVLGLSQGSVSDMLSRPKPWSKLTQKGREPFIRMQLWLSDQL [I24W]")
"class C"
>>> class_name("EVDTLELTRQVKEKLAKNGICQRIFGEKVLGLSQGSVSDMLSRPKPWSKLRQKGREPFIRMQLWLSDQL [T51R]")
"class B"
>>> class_name("EVDTLELTRQVKEKLAKNGICQRIFGEKVLGLSQGSVSDMLSRPKPWSKLTQKGREPFIAMQLWLSDQL [R60A]")
"class A"
>>> class_name("EVDTLELTRQVKEKLAKNGICQRIFGEKVLGLSQTSVSDMLSRPKPWSKLTQKGREPFIRMQLWLSDQL [G35T]")
"class C"
>>> class_name("EVDTLELTRQVKEKLAKAGICQRIFGEKVLGLSQGSVSDMLSRPKPWSKLTQKGREPFIRMQLWLSDQL [N18A]")
"class B"
>>> class_name("EVDTLELTRQVKEKLAKNGICQRIFGEKVLGPSQGSVSDMLSRPKPWSKLTQKGREPFIRMQLWLSDQL [L32P]")
"class A"
>>> class_name("EVDTLELTRQVKEKLAKNGICVRIFGEKVLGLSQGSVSDMLSRPKPWSKLTQKGREPFIRMQLWLSDQL [Q22V]")
"class B"
>>> class_name("EVDTLELTRQVKEKLAKNGICQRIFGEKVLGLSQGSVSDMLSRPKPWSKLTQKGREPFIRMQSWLSDQL [L63S]")
"class C"
>>> class_name("EVDTLELTRQVKEKLAKNGICQRIFGEKVLGLSQGSVSDMLSRPKPWSKLTQKGREPFIRMQAWLSDQL [L63A]")
"class C"
